Data origin: PubChem BioAssay

Test system: XIP peptide (Xip251-270) binding
ASSAY_METHOD_TEXT: small-molecule binders of XIP peptide, primary screen, biochemical, small-molecule microarray, fluorescence 635/667 nm, 0.1 µg/mL protein (AID 1182)
EXPERIMENTAL_CONDITIONS: fluorescent protein binding, 635 nm, higher = more signal, called active from +8 up or from −8 down
Active and inactive are the calls of the source.
REPORTED_PROPERTY: composite z-score

Reference set (2 entries):
COMPOUND	composite z-score
CCCC[C@@H]1C[C@H]1[C@@H](NC(=O)c1ccc(-c2ccccc2)cc1)c1ccc(-c2ccccc2)cc1	0.0014 (inactive)
COC(=O)[C@@]1(Cc2ccc(OC)cc2)[C@H]2c3cc(C(=O)N4CCCC4)n(Cc4ccccn4)c3C[C@H]2CN1C(=O)c1ccccc1	-0.22 (inactive)

For each listed entry, give its composite z-score.
1. O=C1O[C@@H](c2ccccc2)[C@@H](c2ccccc2)N2[C@@H](c3ccc(O)cc3)[C@]3(C(=O)Nc4ccc(C#CC5(O)CCCCCC5)cc43)[C@@H](C(=O)N3CCCCCCC3)[C@H]12
2. CN(C)CCCNC(=O)[C@@]1(Cc2ccccc2I)c2ccccc2C(=O)N(Cc2ccccc2C(F)(F)F)[C@H]1c1ccc(CO)cc1
3. CCCCCN1CC=CC23O[C@@H]4/C=C\CCCOC(=O)C4[C@H]2C(=O)N(CCCCCCO)[C@@H]3C1=O (stereo not given in full)
4. COc1ccc([Si](C)(C)[C@@H]2[C@@H](CC(=O)N(CCO)Cc3ccccc3)O[C@]3(C(=O)N(C)c4ccccc43)[C@H]2C)cc1
5. C=CCNC(=O)[C@@H]1[C@H]2C(=O)O[C@H](c3ccccc3)[C@H](c3ccccc3)N2[C@H](c2ccccc2OCCO)[C@@]12C(=O)Nc1ccc(C#CC3=CCCCC3)cc12

[out]
1. 1.51 (inactive)
2. 0.165 (inactive)
3. 0.403 (inactive)
4. 1.74 (inactive)
5. 1.02 (inactive)

For each listed entry, give its composite z-score.
1. CC1CC/C=C\[C@H]2OC34C=CCN(Cc5ccccc5)C(=O)[C@H]3N(CCCCCO)C(=O)[C@@H]4C2C(=O)O1 (stereo not given in full)
2. [N-]=[N+]=NCc1ccccc1C[C@]1(C(=O)NCC(O)CO)N=C(c2ccc(OCCCO)cc2)O[C@H]1c1ccccc1N=[N+]=[N-] (stereo not given in full)
3. CCOC(=O)C[C@H]1[C@H](OC(=O)c2ccccc2-c2ccccc2)[C@@H](NC(=O)c2ccc3ccccc3c2)c2cc(OCCCO)ccc2N1C(=O)c1ccc2ccccc2n1
4. COCC(=C=CC[C@@H](O)c1ccc(CO)o1)CCO
5. O=C(O)[C@H]1C[C@H]2C(=O)NCC(=O)N2[C@H]1c1ccc(O)cc1

[out]
["-0.0864 (inactive)", "-0.188 (inactive)", "0.157 (inactive)", "0.848 (inactive)", "0.267 (inactive)"]

For each listed entry, give its composite z-score.
1. Cc1ccc(S[C@]2(C(=O)NC3CC3)CC(=O)N(Cc3ccccc3)[C@@H]2c2ccc(CO)cc2)cc1
2. O=C1N(CCS(=O)(=O)c2ccccc2)Cc2ccccc2[C@H]2OC(c3ccc(OCCCO)cc3)=N[C@@]12CCS(=O)(=O)c1ccccc1
3. CN1C(=O)C2C=CC(C(O)c3ccccn3)N(Nc3ccccc3)C2C1=O (stereo not given)

[out]
1: 0.795 (inactive); 2: 2.05 (inactive); 3: 0.632 (inactive)
